# Experimental Target: monomeric alpha-synuclein (UniProt P37840 1-140)
# Experiment: SPR, captured mAb
Reported Kd values for the following binders.
Property Measured: Kd (nM)

- Binder: "ACI-7087-4119E10-Ab2 (antibody, V domains shown, mouse hybridoma mAb; VH/VL only; also called 4119E10D12) VH: QVQLQQSGAELVRPGASVTLSCKASGYTFSDYEMNWVKQTPVHGLEWIGAIDPETGGTAYNQKFKGKAILTSDKSSSTAYMELRSLTSEDSAVYYCTRFLLIDFDYWGQGTTLTVSS VL: DVLMTQTPLSLPVSLGDQASISCRSSQSIVHSNGNTYLEWYLKKAGQSPKVLIYKVSNRFSGVPDRFSGSGSGTDFTLKISRVEAEDLGVYYCFQGSHVPYTFGGGTELEIK"
  Property Measured: "Kd"
  Experimental Result: 1040
- Binder: "ACI-7079-3112H1-Ab1 (antibody, V domains shown, mouse hybridoma mAb; VH/VL only; also called 3112H1F3) VH: EVQLQQSGPELVKPGASVKISCKASGYTFSDYFMNWVKQSHGKSLEWIGDINPNNGGSSYIQKFKGKATLTVDKSSTTAYMELRSLTSEDSAVYYCARGSNYAMDSWGQGTSVTVSS VL: DIVMSQSPSSLAVSAGEKVTMSCKSSQSLLNSRTRKNYLAWYQQKPGQSPKLLIYWASTRESGVPDRFTGSGSGTDFTLTISSVQAEDLAVYYCKQSYDLWTFGGGTKLEIK"
  Property Measured: "Kd"
  Experimental Result: 10.5
